Sourced from ChEMBL document CHEMBL3988442

# TARGET_SYSTEM: Aspartate--tRNA(Asp/Asn) ligase (Mycobacterium tuberculosis (strain ATCC 25618 / H37Rv)) (UniProt P9WFW3)
# Sequence (P9WFW3 whole entry): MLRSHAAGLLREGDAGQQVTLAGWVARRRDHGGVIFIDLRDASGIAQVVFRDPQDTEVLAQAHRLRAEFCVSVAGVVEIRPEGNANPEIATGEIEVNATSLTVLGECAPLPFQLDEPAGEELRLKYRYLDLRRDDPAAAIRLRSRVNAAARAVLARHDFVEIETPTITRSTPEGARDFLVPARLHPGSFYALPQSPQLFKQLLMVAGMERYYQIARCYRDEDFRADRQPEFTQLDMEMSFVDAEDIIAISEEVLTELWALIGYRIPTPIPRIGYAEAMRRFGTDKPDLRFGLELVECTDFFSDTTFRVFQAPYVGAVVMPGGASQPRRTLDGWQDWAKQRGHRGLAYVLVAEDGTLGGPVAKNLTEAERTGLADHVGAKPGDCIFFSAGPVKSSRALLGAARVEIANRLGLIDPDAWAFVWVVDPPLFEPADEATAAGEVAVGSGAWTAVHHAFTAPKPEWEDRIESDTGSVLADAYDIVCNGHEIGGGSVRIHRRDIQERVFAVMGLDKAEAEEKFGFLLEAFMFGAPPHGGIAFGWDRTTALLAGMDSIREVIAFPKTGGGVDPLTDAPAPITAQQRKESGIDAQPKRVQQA
# ASSAY_PROCEDURE: Assay for Asp RNA synthetase-1 from Mycobacterium tuberculosis
# Type: functional
# Design: scale not given: in the data most compounds retested in dose-response had high values
# CONDITION_LABEL: 30 µM
Recorded Percent Effect values for a group of molecules are listed next.
Answer format: numeric, % implied, no suffix.

Solved entries:
* Cc1cccc(-c2nc(CN3CCc4c(ncn4C)C3)no2)c1 | 1.91
* O=C(NCCC(=O)N1CCCCCC1)c1c(O)cc(F)cc1F | -0.98
* CC(C)(CNC(=O)OC(C)(C)C)NC(=O)C1CC(=O)N(C2CC2)C1 (stereo unspecified) | 3.37
* Nc1nc(CN2CCCC(Cn3cncn3)C2)nc2ccccc12 (stereo unspecified) | 0.466
* O=C(NC1(c2cccc(F)c2)CCOCC1)c1cc[nH]n1 | 3.45
* Cc1c(C(=O)NC(CN2CCCC2=O)c2ccccc2)cnn1C (stereo unspecified) | -1.08
* Cc1ccc(C)c(C(NC(=O)C(C)(C)C)c2cccnc2)c1 (stereo unspecified) | -1.21
* Cc1ccc(CN2CCCC3(CCN(S(C)(=O)=O)C3)C2)o1 (stereo unspecified) | 5.01

Task: Requested read-out: Percent Effect. Entry: O=C(NCCn1ccnc1)NCC(c1ccco1)N1CCCCC1 (stereo unspecified)
Result: 1.79

Task: Requested read-out: Percent Effect. Entry: COC(=O)c1cccc(NC(=O)CCn2nc(-c3cccs3)oc2=O)c1
Result: 1.89

Task: Requested read-out: Percent Effect. Entry: Cc1ncsc1C(=O)NCc1cccs1
Result: -1.72
